Target: Pim-3 (Homo sapiens)
Construct: His6-labelled recombinant full-length human Pim-1, Pim-2 or Pim-3 protein; His6; made in house
Assay: TR-FRET assay, Pim-3 kinase (phosphorylation of Bad Ser112)
Assay type: biochemical
Settings: TR-FRET; ATP 40 μM; read-out: IC50 Pim3
outcome_measure: IC50

[
  {
    "molecule": "OC(COc1ccc(-c2c(F)cnc3[nH]c4cnc(-c5cccnc5)cc4c23)cc1)CN1CCOCC1 (centres unmarked)",
    "recorded_value": "1 to 100 nM"
  },
  {
    "molecule": "CN1CCN(c2ccc(-c3cnc4[nH]c5cnc(-c6cccnc6)cc5c4c3)cc2)CC1",
    "recorded_value": "1 to 100 nM"
  },
  {
    "molecule": "CCN(CC)CCCn1cc(-c2cc3c(cn2)[nH]c2ncc(OC)cc23)cn1",
    "recorded_value": "1000 to 5000 nM"
  },
  {
    "molecule": "COc1cnc2[nH]c3cnc(-c4cccnc4)cc3c2c1-c1ccc(NS(C)(=O)=O)cc1",
    "recorded_value": "1 to 100 nM"
  },
  {
    "molecule": "CCOc1cnc2[nH]c3cnc(-c4cccnc4)cc3c2c1",
    "recorded_value": "1 to 100 nM"
  },
  {
    "molecule": "CS(=O)(=O)NCc1cccc(-c2c(F)cnc3[nH]c4cnc(-c5cccnc5)cc4c23)c1",
    "recorded_value": "1 to 100 nM"
  },
  {
    "molecule": "Fc1cnc2[nH]c3cnc(-c4cccnc4)cc3c2c1-c1ccc(OCCN2CCCC2)cc1",
    "recorded_value": "1 to 100 nM"
  },
  {
    "molecule": "CSc1cncc(-c2cc3c(cn2)[nH]c2ncc(F)cc23)c1",
    "recorded_value": "100 to 1000 nM"
  }
]
